# ASSAY_METHOD_TEXT: Plasma pharmacokinetics after a single s.c. dose
# Format: in vivo, human
# CONDITION_SUMMARY: human, plasma, sc, 10 mg, CL/F, geometric mean, 10 mg single s.c. dose, healthy adults, NCA, N = 5
*1 amine or outer side, *2 acyl side, *3 side chain or, on linkers, in order; H or OH if unused. Where a SMILES comes first, the peptide text is derived from it. Bridges are numbered along the chain shown (N, C = ends). [ ]: non-standard residue; d: D form. The star is where a group is joined. Orn(4R-OH,5R-OCH2CH2NMe3+) = C[N+](C)(C)CCO[C@@H](N[*:3])[C@H](O)C[C@H](N[*:1])C(=O)[*:2]; pTerphenylCO(4''-OnC5H11) = CCCCCOc1ccc(-c2ccc(-c3ccc(C(=O)*)cc3)cc2)cc1; hTyr(3S-OH,4S-OH) = N[C@H](C(=O)O)[C@H](O)[C@@H](O)c1ccc(O)cc1; Pro(3S-OH,4S-Me) = C[C@H]1CN[C@H](C(=O)O)[C@H]1O; Hyp = O=C(O)[C@@H]1C[C@@H](O)CN1

COMPOUND	VALUE_UNITS	CL/F
CCCCCOc1ccc(-c2ccc(-c3ccc(C(=O)N[C@H]4C[C@@H](O)[C@@H](OCC[N+](C)(C)C)NC(=O)[C@@H]5[C@@H](O)[C@@H](C)CN5C(=O)[C@H]([C@@H](C)O)NC(=O)[C@H]([C@H](O)[C@@H](O)c5ccc(O)cc5)NC(=O)[C@@H]5C[C@@H](O)CN5C(=O)[C@H]([C@@H](C)O)NC4=O)cc3)cc2)cc1 [rezafungin] ({pTerphenylCO(4''-OnC5H11)}-[Orn(4R-OH,5R-OCH2CH2NMe3+)]T[Hyp][hTyr(3S-OH,4S-OH)]T[Pro(3S-OH,4S-Me)]; lactam 1-C)	mL/min	4.25

---

# ASSAY_METHOD_TEXT: Plasma pharmacokinetics after a single s.c. dose
# Type: in vivo, human
# CONDITION_SUMMARY: human, plasma, sc, 10 mg, CL/F, median, 10 mg single s.c. dose, healthy adults, NCA, N = 5
*1 amine or outer side, *2 acyl side, *3 side chain or, on linkers, in order; H or OH if unused. Where a SMILES comes first, the peptide text is derived from it. Bridges are numbered along the chain shown (N, C = ends). [ ]: non-standard residue; d: D form. The star is where a group is joined. Orn(4R-OH,5R-OCH2CH2NMe3+) = C[N+](C)(C)CCO[C@@H](N[*:3])[C@H](O)C[C@H](N[*:1])C(=O)[*:2]; pTerphenylCO(4''-OnC5H11) = CCCCCOc1ccc(-c2ccc(-c3ccc(C(=O)*)cc3)cc2)cc1; hTyr(3S-OH,4S-OH) = N[C@H](C(=O)O)[C@H](O)[C@@H](O)c1ccc(O)cc1; Pro(3S-OH,4S-Me) = C[C@H]1CN[C@H](C(=O)O)[C@H]1O; Hyp = O=C(O)[C@@H]1C[C@@H](O)CN1
READOUT_LABEL: CL/F (mL/min)

COMPOUND	MEASURED_RESULT
CCCCCOc1ccc(-c2ccc(-c3ccc(C(=O)N[C@H]4C[C@@H](O)[C@@H](OCC[N+](C)(C)C)NC(=O)[C@@H]5[C@@H](O)[C@@H](C)CN5C(=O)[C@H]([C@@H](C)O)NC(=O)[C@H]([C@H](O)[C@@H](O)c5ccc(O)cc5)NC(=O)[C@@H]5C[C@@H](O)CN5C(=O)[C@H]([C@@H](C)O)NC4=O)cc3)cc2)cc1 [rezafungin] ({pTerphenylCO(4''-OnC5H11)}-[Orn(4R-OH,5R-OCH2CH2NMe3+)]T[Hyp][hTyr(3S-OH,4S-OH)]T[Pro(3S-OH,4S-Me)]; lactam 1-C)	4.5
